src = ChEMBL document CHEMBL4680248

# Lookup of reported IC50 keyed by entry
molecular target: GABA-A receptor; alpha-1/beta-3/gamma-2 (Homo sapiens, UniProt P14867+P18507+P28472); test: Inhibition of [3H]azietomidate labelling of GABAA alpha1beta3gamma2L (unknown origin) expressed in Xenopus laevis oocytes assessed as reduction in photoincorporation at M236 residues of alpha1 subunit measured after 30 mins in presence of GABA by liquid scintillation counting method; assay type: cell-based, Oocyte

| Smiles notation | IC50 |
| --- | --- |
| CC(C)c1cccc(C(C)C)c1O | 8 µM |
| CC(C)c1cccc(C(C)C)c1CO | 92 µM |
| OCc1ccc(C2(C(F)(F)F)N=N2)cc1 | 305 µM |
| CC(C)c1cc(C2(C(F)(F)F)N=N2)cc(C(C)C)c1CO | 460 µM |
